Reported selectivity ratio values are given for each entry in this list.
Test: Therapeutic index, ratio of cytotoxicity against MDCK cells to IC50 for influenza virus A/Puerto Rico/8/34 H1N1
Format: cell-based
Conditions: dog, read-out: TI
observedProperty: selectivity ratio

- compound: "COc1ccc(O)c2c1C[C@]1(C)[C@@H](C)CC[C@H]3C(C)(C)CCC[C@]31O2 [STRONGYLIN A]"
  testValue: 9
- compound: "COc1ccc(OC(C)=O)c2c1C[C@]1(C)[C@@H](C)CC[C@H]3C(C)(C)CCC[C@]31O2"
  testValue: 100
